Where these numbers come from: a melting point compilation (Tetko et al.)

molecular-string: Cc1nnc2[nH]nc(N)c2c1C
melting point: 264 to 266 °C

molecular-string: COc1ccc(SC)c(OC)c1C(=O)O
melting point: 117 to 119 °C

molecular-string: O=C(c1cccc(F)c1)c1cccc(Br)c1
melting point: 65 to 67 °C

molecular-string: CC(C)c1nc(N)n(C)n1
melting point: 108 to 110 °C

molecular-string: C1=C(c2c[nH]c3ncccc23)CCNC1
melting point: 181 to 183 °C

molecular-string: COc1ccc(S(=O)(=O)Cl)cc1Cl
melting point: 80 to 82 °C

molecular-string: O=C(O)c1nnn(-c2ccccc2)c1C(F)(F)F
melting point: 132 to 134 °C

molecular-string: O=C(O)c1csc(S(=O)(=O)N2CCc3ccccc3C2)c1
melting point: 232 to 234 °C

molecular-string: COc1ccc2[nH]c(C(=O)O)cc2c1OC
melting point: 221 to 223 °C

molecular-string: Fc1ccc(Nc2nccs2)cc1Cl
melting point: 124 to 126 °C

molecular-string: Cc1ccc(C)c(SCc2nc3sc(C(=O)O)c(C)c3c(=O)[nH]2)c1
melting point: 295 to 297 °C

molecular-string: Nc1ccc(F)cc1-c1ccc(Cl)cc1
melting point: 54 to 56 °C

---

compound: NC(CC(=O)O)c1cnn(-c2ccccc2)c1 (stereo not drawn)
melting point: 219 to 221 °C
--
compound: O=C(Nc1ccc(O)cc1C(=O)O)OCc1ccccc1
melting point: 176 to 178 °C
--
compound: O=C(O)c1ccc(-n2cccc2)c(F)c1
melting point: 252 to 254 °C
--
compound: O=C(O)CNC(=O)C1CCCCC1
melting point: 153 to 157 °C
--
compound: CC(C)(C)OC(=O)N1CCN(CC#N)CC1
melting point: 79 to 81 °C
--
compound: Cc1nc(-c2ccc(N)cc2)co1
melting point: 112 to 114 °C
--
compound: O=C(O)c1ccn[nH]1
melting point: 212 to 216 °C
--
compound: O=C(O)C=Cc1ccc(S(=O)(=O)N2CCc3ccccc32)cc1
melting point: 199 to 201 °C
--
compound: CCc1n[nH]c(C(=O)O)c1Cl
melting point: 199 to 201 °C
--
compound: Nc1ncccc1-c1ccccc1
melting point: 103 to 105 °C
--
compound: O=C(Cc1ccc(Br)cc1)Nc1ccccc1C(=O)O
melting point: 212 to 214 °C
--
compound: CC(=O)c1ccc(C(=O)O)c(F)c1
melting point: 159 to 161 °C
--
compound: COc1ccc(Br)cc1CN1C(=O)CNC1=O
melting point: 183 to 185 °C
--
compound: O=C(O)CCNS(=O)(=O)c1ccc(Br)cc1
melting point: 161 to 163 °C
--
compound: Nc1ccc(-c2ncco2)cc1
melting point: 104 to 106 °C
--
compound: CC(C)(C)c1cc(N)n(C2CCS(=O)(=O)C2)n1 (stereo not drawn)
melting point: 247 to 249 °C
--
compound: O=C(O)C1CCN(S(=O)(=O)Cc2ccccc2)CC1
melting point: 191 to 193 °C
--
compound: Nc1ccccc1N1CCCC1=O
melting point: 98 to 102 °C
--
compound: Cc1nn(CC(F)(F)F)c(C)c1C(C)C(=O)O (stereo not drawn)
melting point: 130 to 132 °C
--
compound: O=C(O)CCCc1csc2ccccc12
melting point: 109 to 111 °C
--
compound: Cc1ccc(C(=O)Nc2cccc(C=O)c2)cc1
melting point: 130 to 132 °C
--
compound: N#Cc1ccccc1S(=O)(=O)N1CCN(C(=O)CCl)CC1
melting point: 206 to 208 °C
--
compound: CCc1cc2c(Cl)ncnc2s1
melting point: 55 to 57 °C

---

The reader will find reported melting point values listed item by item below.
measurement-kind: melting point

molecule: Nc1oc2ccccc2c(=O)c1C=O
measurement-kind: melting point
measured: 249 to 251 °C

molecule: Cc1nc(COc2ccc(/C=C/C(=O)O)cc2)cs1
measurement-kind: melting point
measured: 185 to 187 °C

molecule: O=C(O)C1CC1c1c(F)cccc1Cl (centres undefined)
measurement-kind: melting point
measured: 109 to 111 °C

molecule: Cc1ccc(S(=O)(=O)Cl)c(C)c1OCC(=O)O
measurement-kind: melting point
measured: 144 to 146 °C

molecule: CNc1ccc(C=O)cc1[N+](=O)[O-]
measurement-kind: melting point
measured: 118 to 120 °C

molecule: COC(=O)NC1(C(=O)O)CCCC1
measurement-kind: melting point
measured: 131 to 133 °C

molecule: COC(=O)C1Nc2ccccc2S(=O)(=O)N1 (centres undefined)
measurement-kind: melting point
measured: 171 to 173 °C

molecule: NS(=O)(=O)NCc1cccnc1
measurement-kind: melting point
measured: 129 to 131 °C

molecule: CS(=O)(=O)c1ccc(C#N)cc1N
measurement-kind: melting point
measured: 150 to 152 °C

molecule: Cc1ccc(S(=O)(=O)NCCCC(=O)O)cc1C
measurement-kind: melting point
measured: 111 to 113 °C

molecule: CNC(=O)c1ccc(NC(=O)CCl)cc1
measurement-kind: melting point
measured: 206 to 208 °C

molecule: COc1ncc(Br)cc1CC(=O)O
measurement-kind: melting point
measured: 129 to 131 °C

molecule: NCc1ccc(-n2cncn2)cc1Cl
measurement-kind: melting point
measured: 111 to 113 °C

molecule: CC(C)Nc1nc(COc2ccccc2)no1
measurement-kind: melting point
measured: 86 to 88 °C

molecule: CC(C1CC1)n1ncc2c(C(=O)O)cc(C3CC3)nc21 (centres undefined)
measurement-kind: melting point
measured: 148 to 150 °C

molecule: COC(=O)c1cc(OC)ccc1S(=O)(=O)Cl
measurement-kind: melting point
measured: 49 to 51 °C

molecule: Clc1ccc2nc(Cl)nc(Cl)c2c1
measurement-kind: melting point
measured: 89 to 91 °C

molecule: Nc1cc2c(nn1)CCNC2
measurement-kind: melting point
measured: 219 to 221 °C

molecule: CCCOc1nc2ccccc2cc1/C=C/C(=O)O
measurement-kind: melting point
measured: 159 to 161 °C

molecule: Oc1ccc(OCc2ccncc2)cc1
measurement-kind: melting point
measured: 179 to 181 °C

molecule: Cc1ccc(-n2nc(C(=O)O)c3c2CCCC3)cc1F
measurement-kind: melting point
measured: 208 to 210 °C

molecule: O=C(O)c1c[nH]c2cccc(F)c12
measurement-kind: melting point
measured: 209 to 211 °C

molecule: CCOC(=O)C(C#N)C(N)=O (centres undefined)
measurement-kind: melting point
measured: 152 to 154 °C

molecule: CC(C)Cc1cc(C(=O)O)cc(O)n1
measurement-kind: melting point
measured: 235 to 237 °C

molecule: FC(F)n1ccnc1Cn1cc(Br)cn1
measurement-kind: melting point
measured: 79 to 81 °C

molecule: O=C1CN(/C=C/c2ccccc2)C(=O)N1
measurement-kind: melting point
measured: 224 to 226 °C

molecule: Nc1c(-c2ccccc2)nc2ccccn12
measurement-kind: melting point
measured: 152 to 155 °C

molecule: CS(=O)(=O)c1ccc(F)c(C(=O)O)c1
measurement-kind: melting point
measured: 190 to 192 °C

molecule: Cn1cc(CN=[N+]=[N-])c(-c2ccc(C#N)cc2)n1
measurement-kind: melting point
measured: 101 to 103 °C

molecule: CS(=O)(=O)Nc1ccc(CCl)cc1
measurement-kind: melting point
measured: 107 to 109 °C

molecule: COC(=O)Cc1ccc(Oc2ccnc(C#N)c2)cc1
measurement-kind: melting point
measured: 120 to 122 °C

molecule: N#CCNC(=O)CN1CCC(=O)CC1
measurement-kind: melting point
measured: 124 to 126 °C

molecule: CCc1nc(C(=O)O)c[nH]1
measurement-kind: melting point
measured: 239 to 241 °C

molecule: CS(=O)(=O)Nc1cc(C(=O)O)ccc1F
measurement-kind: melting point
measured: 250 to 252 °C

molecule: Cc1cc(C(=O)O)c2c(C)n[nH]c2n1
measurement-kind: melting point
measured: 299 to 301 °C

molecule: Cn1c(N)nc2cc(F)ccc21
measurement-kind: melting point
measured: 152 to 154 °C

molecule: Cn1nc(CCl)[nH]c1=O
measurement-kind: melting point
measured: 139 to 141 °C

molecule: O=C(NCc1ccc2c(c1)OCO2)C(Cl)c1ccccc1 (centres undefined)
measurement-kind: melting point
measured: 104 to 106 °C

molecule: OC1(c2ccccc2)CCC1
measurement-kind: melting point
measured: 39 to 41 °C

molecule: CS(=O)(=O)c1ccc(-c2csc(N)n2)cc1
measurement-kind: melting point
measured: 260 to 262 °C

molecule: O=C(CCC1CCCCC1)Nc1ccc(C(=O)O)c(O)c1
measurement-kind: melting point
measured: 209 to 211 °C

molecule: Cn1ccc(C(=O)N2CCCCC2CC(=O)O)cc1=O (centres undefined)
measurement-kind: melting point
measured: 194 to 196 °C

molecule: Cn1c(N)nnc1S
measurement-kind: melting point
measured: 278 to 280 °C

molecule: CC(Cl)C(=O)N(C)C1CCS(=O)(=O)C1 (centres undefined)
measurement-kind: melting point
measured: 106 to 108 °C

molecule: COC(=O)c1c(N)sc(C)c1C
measurement-kind: melting point
measured: 124 to 126 °C

molecule: O=C(O)CCNS(=O)(=O)c1ccc(Cl)cc1
measurement-kind: melting point
measured: 155 to 159 °C

molecule: O=c1c2ccccc2nc(S)n1CCCN1CCOCC1
measurement-kind: melting point
measured: 175 to 177 °C

molecule: Nc1cc(C(F)(F)F)ccc1C1CCNCC1
measurement-kind: melting point
measured: 86 to 88 °C

molecule: O=C1C(=O)N(CO)c2ccccc21
measurement-kind: melting point
measured: 157 to 159 °C
